The reported measurements were obtained from ChEMBL document CHEMBL1139215.

test: Clearance in Sprague-Dawley rat at 2.1 mg/kg, iv; type: ADME, organism-based; parameters: dose 2.1 mg/kg, route intravenous; details: in vivo
assay_metric: clearance (mL/min/kg)
Answers are plain numbers, in mL/min/kg.

Entry under test: `CCn1c(-c2nonc2N)nc2cnc(Oc3cccc(NC(=O)c4ccc(N5CCOCC5)cc4)c3)cc21` . Its clearance was 8.6

----------
Field: Selectivity ratio. Provide a value for each of the compounds that follow.
species on record: Homo sapiens; assay: Selectivity for ROCK1 over RSK1
Numbers only.

Entry under test: `CCn1c(-c2nonc2N)nc2cnc(OC)cc21` . Its Selectivity ratio was 18

Would you mind giving Selectivity ratio for every compound in the list below?
1. CCn1c(-c2nonc2N)nc2cnc(Oc3cccc(S(C)(=O)=O)c3)cc21
2. CCn1c(-c2nonc2N)nc2cnc(Oc3cccc(NC(C)=O)c3)cc21
3. CCn1c(-c2nonc2N)nc2cnccc21
4. CCn1c(-c2nonc2N)nc2cnc(Oc3cccc(C(C)=O)c3)cc21
5. CCn1c(-c2nonc2N)nc2cnc(Oc3cccc(NC(=O)c4ccccc4)c3)cc21

[2.7, 18, 0.63, 12, 3.8]
